biological target: UniProt:P0DTD1
measuredAttribute: pKi
Note on pKi: it is the negative log10 of concentration, concentration in mol/L.

Answered examples (4):
compound	reportedResult
CC(C)(C)[C@H](NC(=O)C(F)(F)F)C(=O)N1C[C@H](c2ccccc2)C[C@H]1C(=O)N[C@H](C#N)C[C@@H]1CCNC1=O	8.90
CO[C@@H]1C[C@@H](C(=O)N[C@H](C=NO)C[C@@H]2CCNC2=O)N(C(=O)[C@@H](NC(=O)C(F)(F)F)C(C)(C)C)C1	6.80
CC(=O)N[C@@H]1C[C@@H](C(=O)N[C@H](C=NO)C[C@@H]2CCNC2=O)N(C(=O)[C@@H](NC(=O)C(F)(F)F)C(C)(C)C)C1	7.00
CO[C@@H]1C[C@@H](C(=O)N[C@H](C#N)C[C@@H]2CCNC2=O)N(C(=O)[C@@H](NC(=O)C(F)(F)F)C(C)(C)C)C1	8.80

Alright, here's another compound for you.
Task: Record `CC(C)(C)[C@H](NC(=O)C(F)(F)F)C(=O)N1C[C@H](c2ccccc2)C[C@H]1C(=O)N[C@H](C=NO)C[C@@H]1CCNC1=O` : what is its pKi with UniProt:P0DTD1?
Output: 7.30

###

pKi, SARS-CoV-2 M^pro (Severe acute respiratory syndrome coronavirus 2), per-entry values.
Note on pKi: it is the negative log10 of concentration, concentration in mol/L.

compound	pKi
CO[C@@H]1C[C@@H](C(=O)N[C@H](/C=C(\F)S(=O)(=O)c2ccccc2)C[C@@H]2CCNC2=O)N(C(=O)[C@@H](NC(=O)C(F)(F)F)C(C)(C)C)C1	8.10

Task: What value of measured pKi is listed for `C#CCO[C@@H]1C[C@@H](C(=O)N[C@H](C=NO)C[C@@H]2CCNC2=O)N(C(=O)[C@@H](NC(=O)C(F)(F)F)C(C)(C)C)C1` ?
Output: 7.50

Task: What value of measured pKi is listed for `CC(C)(C)[C@H](NC(=O)C(F)(F)F)C(=O)N1C[C@H](OCc2ccccc2)C[C@H]1C(=O)N[C@H](C=NO)C[C@@H]1CCNC1=O` ?
Output: 6.70

Task: What value of measured pKi is listed for `C=CCO[C@@H]1C[C@@H](C(=O)N[C@H](C=NO)C[C@@H]2CCNC2=O)N(C(=O)[C@@H](NC(=O)C(F)(F)F)C(C)(C)C)C1` ?
Output: 7.30

Task: What value of measured pKi is listed for `CC(C)(C)[C@H](NC(=O)C(F)(F)F)C(=O)N1C[C@H](C2CCCCC2)C[C@H]1C(=O)N[C@H](C=NO)C[C@@H]1CCNC1=O` ?
Output: 7.00

Task: What value of measured pKi is listed for `CCO[C@@H]1C[C@@H](C(=O)N[C@H](C=NO)C[C@@H]2CCNC2=O)N(C(=O)[C@@H](NC(=O)C(F)(F)F)C(C)(C)C)C1` ?
Output: 7.00

###

molecular target: UniProt:P0DTD1; experiment: Determination of the inhibition constants (Ki) for SARS-CoV-2 Mpro, Morrison equation, QS1 fluorogenic substrate; assay type: biochemical; conditions: supplement table; M^pro 25 nM, 30 min preincubation at 37 °C, QS1 20 µM
measuredAttribute: Biological Activity (pKi)
Provide a numeric answer; units are not to be included.

Answered examples (5):
compound	assaySystem	Biological Activity (pKi)
CO[C@@H]1C[C@@H](C(=O)N[C@H](C=NO)C[C@@H]2CCNC2=O)N(C(=O)[C@@H](NC(=O)C(F)(F)F)C(C)(C)C)C1 [Compound 22]	UniProt:P0DTD1	6.8
CO[C@@H]1C[C@@H](C(=O)N[C@H](C#N)C[C@@H]2CCNC2=O)N(C(=O)[C@@H](NC(=O)C(F)(F)F)C(C)(C)C)C1 [Compound 31]	UniProt:P0DTD1	8.8
CC(C)(C)[C@H](NC(=O)C(F)(F)F)C(=O)N1C[C@H](c2ccccc2)C[C@H]1C(=O)N[C@H](C=NO)C[C@@H]1CCNC1=O [Compound 23]	UniProt:P0DTD1	7.3
C#CCO[C@@H]1C[C@@H](C(=O)N[C@H](C=NO)C[C@@H]2CCNC2=O)N(C(=O)[C@@H](NC(=O)C(F)(F)F)C(C)(C)C)C1 [Compound 25]	UniProt:P0DTD1	7.5
C=CCO[C@@H]1C[C@@H](C(=O)N[C@H](C=NO)C[C@@H]2CCNC2=O)N(C(=O)[C@@H](NC(=O)C(F)(F)F)C(C)(C)C)C1 [Compound 24]	UniProt:P0DTD1	7.3

Task: What value of measured Biological Activity (pKi) is listed for CC(=O)N[C@@H]1C[C@@H](C(=O)N[C@H](C=NO)C[C@@H]2CCNC2=O)N(C(=O)[C@@H](NC(=O)C(F)(F)F)C(C)(C)C)C1 [Compound 28] ?
Output: 7.0

Task: What value of measured Biological Activity (pKi) is listed for CC(C)(C)[C@H](NC(=O)C(F)(F)F)C(=O)N1C[C@H](C2CCCCC2)C[C@H]1C(=O)N[C@H](C=NO)C[C@@H]1CCNC1=O [Compound 27] ?
Output: 7.0

Task: What value of measured Biological Activity (pKi) is listed for CCO[C@@H]1C[C@@H](C(=O)N[C@H](C=NO)C[C@@H]2CCNC2=O)N(C(=O)[C@@H](NC(=O)C(F)(F)F)C(C)(C)C)C1 [Compound 26] ?
Output: 7.0

Task: What value of measured Biological Activity (pKi) is listed for CC(C)(C)[C@H](NC(=O)C(F)(F)F)C(=O)N1C[C@H](OCc2ccccc2)C[C@H]1C(=O)N[C@H](C=NO)C[C@@H]1CCNC1=O [Compound 29] ?
Output: 6.7

Task: What value of measured Biological Activity (pKi) is listed for CO[C@@H]1C[C@@H](C(=O)N[C@H](/C=C(\F)S(=O)(=O)c2ccccc2)C[C@@H]2CCNC2=O)N(C(=O)[C@@H](NC(=O)C(F)(F)F)C(C)(C)C)C1 [Compound 30] ?
Output: 8.1

Task: What value of measured Biological Activity (pKi) is listed for CC(C)(C)[C@H](NC(=O)C(F)(F)F)C(=O)N1C[C@H](c2ccccc2)C[C@H]1C(=O)N[C@H](C#N)C[C@@H]1CCNC1=O [Compound 34] ?
Output: 8.9

###

assay: Metabolic stability against liver microsomes, loss of parent compound by HPLC-UV; details: rat liver microsomes 0.2 mg/mL, NADPH, 37°C, 100 µM compound, 480 min (8 h)
measuredAttribute: remaining parent compound after 480 min

compound	remaining parent compound after 480 min
CO[C@@H]1C[C@@H](C(=O)N[C@H](C#N)C[C@@H]2CCNC2=O)N(C(=O)[C@@H](NC(=O)C(F)(F)F)C(C)(C)C)C1	~100%

Task: What value of measured remaining parent compound after 480 min is listed for `CO[C@@H]1C[C@@H](C(=O)N[C@H](/C=C(\F)S(=O)(=O)c2ccccc2)C[C@@H]2CCNC2=O)N(C(=O)[C@@H](NC(=O)C(F)(F)F)C(C)(C)C)C1` ?
Output: ~100%

###

biological target: WT SARS-CoV-2 Mpro (Severe acute respiratory syndrome coronavirus 2, UniProt P0DTD1); experiment: Jump-dilution assay for reversibility of inhibition; format: biochemical; settings: incubated 30 min at 100 nM M^pro and 200 nM inhibitor, 10-fold dilution, followed 30 min
measuredAttribute: mechanism of inhibition (reversibility)

compound	reportedResult
CO[C@@H]1C[C@@H](C(=O)N[C@H](C=NO)C[C@@H]2CCNC2=O)N(C(=O)[C@@H](NC(=O)C(F)(F)F)C(C)(C)C)C1	reversible
CO[C@@H]1C[C@@H](C(=O)N[C@H](/C=C/S(=O)(=O)c2ccccc2)C[C@@H]2CCNC2=O)N(C(=O)[C@@H](NC(=O)C(F)(F)F)C(C)(C)C)C1	irreversible
COc1ccc(C(=O)ON=C[C@H](C[C@@H]2CCNC2=O)NC(=O)[C@@H]2C[C@@H](OC)CN2C(=O)[C@@H](NC(=O)C(F)(F)F)C(C)(C)C)cc1	irreversible
CO[C@@H]1C[C@@H](C(=O)N[C@H](/C=C(\F)S(=O)(=O)c2ccccc2)C[C@@H]2CCNC2=O)N(C(=O)[C@@H](NC(=O)C(F)(F)F)C(C)(C)C)C1	reversible
